Provenance of the data: patent US12398154B2

system: KRas G12A (Homo sapiens, UniProt P01116, G12A);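 also: binding to KRas measured by TR-FRET displacement after one hour at room temperature, IC50 from a four-parameter fit of percent-of-control values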
Sequence (P01116 1-169 isoform P01116-2 G12A): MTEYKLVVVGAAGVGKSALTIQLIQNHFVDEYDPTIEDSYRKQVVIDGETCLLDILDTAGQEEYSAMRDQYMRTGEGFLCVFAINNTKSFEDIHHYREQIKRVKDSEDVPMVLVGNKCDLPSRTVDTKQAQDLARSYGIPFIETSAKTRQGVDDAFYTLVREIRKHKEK
procedure.summary: biochemical
property: IC50 (nM)

Solved cases (5 shown):
N#Cc1cccnc1N1CCN(c2nc(OCC34CCCN3CCC4)nc3c(F)c(-c4cccc5cccc(F)c45)ncc23)CC1: 3700
NS(=O)(=O)CC1CCCN(c2nc(OCC34CCCN3CCC4)nc3c(F)c(-c4cccc5ccccc45)ncc23)C1 (centres unmarked): 204
O=C1CC2(CCCN(c3nc(OCC45CCCN4CCC5)nc4c(F)c(-c5cccc6cccc(CF)c56)ncc34)C2)N1 (centres unmarked): 2810
CCc1cccc2cccc(-c3ncc4c(N5CCOCC(C)(O)C5)nc(OCC56CCCN5CCC6)nc4c3F)c12 (centres unmarked): 229
O=c1cc(CNc2nc(OCC34CCCN3CCC4)nc3c(F)c(-c4cccc5cccc(F)c45)ncc23)[nH][nH]1: 52100

[P] Fc1c(-c2cccc3cccc(F)c23)ncc2c(NCc3ccc4[nH]cnc4c3)nc(OCC34CCCN3CCC4)nc12
[Q] O=C1NC(=O)C2(CCCN(c3nc(OCC45CCCN4CCC5)nc4c(F)c(-c5cccc6cccc(C(F)F)c56)ncc34)C2)N1 (centres unmarked)
Exercise: Could you check which of P and Q has a smaller value for IC50? Output the label that corresponds to your choice.
Solution: Q

====

System: pERK in ASPC1 cells
procedure.summary: Inhibition of KRas phosphorylation of ERK (Cisbio HTRF pERK assay)
measurement.context: Homo sapiens, ASPC1, read-out: Inhibition (HTRF IC50) of KRas-mediated Phosphorylation of ERK, AsPC-1
pIC50: −log10 of the molar value.
property: pIC50

CCc1c(F)ccc2cc(O)cc(-c3ncc4c(N5CCC[C@@](C)(O)C5)nc(OCC5(CN6CCCC6)CC5)nc4c3F)c12 [Example 202]: 8.15
CCc1c(F)ccc2cc(O)cc(-c3ncc4c(NCC5CNC(=O)N5)nc(OC[C@@]56CCCN5C[C@H](F)C6)nc4c3F)c12 (stereo partly drawn) [Example 370]: 5.53
CCc1c(F)ccc2cc(O)cc(-c3ncc4c(N5CC6CC(O)CC5C6)nc(OC[C@@]56CCCN5C[C@H](F)C6)nc4c3F)c12 (stereo partly drawn) [Example 58]: 7.12
O=S1(=O)NCC2(CCCN(c3nc(OC[C@@]45CCCN4C[C@H](F)C5)nc4c(F)c(-c5cc(O)cc6ccc(F)c(Br)c56)ncc34)C2)N1 (stereo partly drawn) [Example 411]: 7.20
CCc1c(F)ccc2cc(O)cc(-c3ncc4c(N5CCCC6(CCS(=O)(=O)C6)C5)nc(OC[C@@]56CCCN5C[C@H](F)C6)nc4c3F)c12 (stereo partly drawn) [Example 507]: 7.60

[a] CCc1c(F)ccc2cc(O)cc(-c3ncc4c(N5CCCSCC5)nc(OC[C@@]56CCCN5C[C@H](F)C6)nc4c3F)c12 [Example 342]
[b] CCc1c(F)ccc2cc(O)cc(-c3ncc4c(N(C)CC5CNS(=O)(=O)N5)nc(OC[C@@]56CCCN5C[C@H](F)C6)nc4c3F)c12 (stereo partly drawn) [Example 495]
Exercise: Which value of pIC50 is greater, the one for a or the one for b ? Output the label that corresponds to your choice.
Solution: a
(a: 7.64, b: 5.87)

[1] CCc1c(F)ccc2cc(O)cc(-c3ncc4c(N5CCCC6(CSC6)C5)nc(OC[C@@]56CCCN5C[C@H](F)C6)nc4c3F)c12 [Example 365]
[2] C#Cc1c(F)ccc2cc(O)cc(-c3ncc4c(N5CCOCC(CO)C5)nc(OC[C@@]56CCCN5C[C@H](F)C6)nc4c3F)c12 (stereo partly drawn) [Example 391]
Exercise: Which value of pIC50 is greater, the one for 1 or the one for 2 ? Output the label that corresponds to your choice.
Solution: 1
